Taken from patent US11274111B2.

biological target: Arginase (Homo sapiens, UniProt P05089); construct: Arginase protein was recombinantly expressed in Escherichia coli; assay: Arginase Thioornithine Generating Assay (TOGA); type: biochemical; conditions: Top Dose 10000 nM; read-out: Percent Inhibition at Top Dose
measured.endpoint: inhibition at 10 µM (%)
State the answer as a number, implicitly in %.

# example entries with known answers
CN(C)[C@@H]1C[C@@H]2C[C@@](N)(C(=O)O)[C@@H](CCCB(O)O)[C@@H]2C1 ... 97.8
NC1(C(=O)O)CC2(CNC2)CC1CCCB(O)O (centres unmarked) [Example 35a] ... 99.7
NCCN1C[C@@H]2C[C@@](N)(C(=O)O)[C@@H](CCCB(O)O)[C@@H]2C1 ... 98
N[C@H]1C[C@@H]2C[C@@](N)(C(=O)O)[C@@H](CCCB(O)O)[C@@H]2C1 ... 99.4

Lookup: Tell me reported inhibition at 10 µM for N[C@@]1(C(=O)O)C[C@H]2C[C@@H](NCCO)C[C@H]2[C@@H]1CCCB(O)O , tested with Arginase (Homo sapiens, UniProt P05089).
Found: 98.4

Lookup: // same read-out, input: N[C@@]1(C(=O)O)C[C@H]2C[C@H](O)C[C@H]2[C@@H]1CCCB(O)O [Example 44b]
Found: 97.4

Lookup: // same read-out, input: N[C@]1(C(=O)O)[C@H](CCCB(O)O)C[C@H]2C[C@H]21 [Example 36b]
Found: 47.4

Lookup: // same read-out, input: N[C@@]1(C(=O)O)C[C@H]2CNC[C@H]2[C@@H]1CCCB(O)O
Found: 98.9

====

Listed below: inhibition at 10 µM values for each entry.
Target: Arginase (Homo sapiens)
Construct: Arginase protein was recombinantly expressed in Escherichia coli
Sequence (P05089 1-322): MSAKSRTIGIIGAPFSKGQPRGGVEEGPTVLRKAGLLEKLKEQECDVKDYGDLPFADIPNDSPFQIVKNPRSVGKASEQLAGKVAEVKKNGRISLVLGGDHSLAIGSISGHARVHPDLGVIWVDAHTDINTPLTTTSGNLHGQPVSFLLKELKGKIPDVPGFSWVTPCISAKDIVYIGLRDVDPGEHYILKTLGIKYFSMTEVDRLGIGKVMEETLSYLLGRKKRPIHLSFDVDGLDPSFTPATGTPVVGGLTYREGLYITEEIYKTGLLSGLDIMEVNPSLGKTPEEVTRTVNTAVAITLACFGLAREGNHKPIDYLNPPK
Experiment: Arginase Thioornithine Generating Assay (TOGA)
Assay type: biochemical
Details: Top Dose 10000 nM; read-out: Percent Inhibition at Top Dose
State the answer as a number, implicitly in %.

# example entries with known answers
C[C@@H]1NC[C@@H]2CC(N)(C(=O)O)[C@@H](CCCB(O)O)C21 (stereo partly drawn) [Example 31b] ... 70
N[C@@]1(C(=O)O)C[C@H]2[C@H](F)[C@@H](O)C[C@H]2[C@@H]1CCCB(O)O [Example 54a] ... 101
NC1(C(=O)O)c2cccnc2CC1CCCB(O)O (stereo not drawn) ... 94.7
CC(=O)N1C[C@@H]2CC(N)(C(=O)O)C(CCCB(O)O)[C@@H]2C1 (mixture of isomers) [Example 13a] ... 99
NCC(=O)N1C[C@@H]2C[C@@](N)(C(=O)O)[C@@H](CCCB(O)O)[C@@H]2C1 ... 95.1

Next up:
Lookup: What does the record list as inhibition at 10 µM for NC1(C(=O)O)CC2CN(S(N)(=O)=O)CC2C1CCCB(O)O (single isomer, unassigned) [Example 18a] ?
Found: 100
